- Assayed system: FAM117A
- Assay procedure: pooled miR-30 sensor sort-seq; sequence = guide strand; further: reference of the scale not given here
- Test conditions: shRNA
Measure: sensor-assay potency score (higher = more potent)

[[record]]
sequence_string = "TTAACATTCTTCAATTTTGTGT"
measured_result = -0.138

[[record]]
sequence_string = "TTGAAATGGACTTTGTTCTTGT"
measured_result = 1.01

[[record]]
sequence_string = "AAATAGAGTCTCTACATCGATA"
measured_result = -1.34

[[record]]
sequence_string = "TGTAGCTATGATTAGGTCGAGG"
measured_result = -1.12

[[record]]
sequence_string = "TACACACTGACTTTTCTGGGGC"
measured_result = 0.0109


Give the measured sensor-assay potency score (higher = more potent) for TCACCTTCTAGCTCTTGCCAGG
-1.11

Look up sensor-assay potency score (higher = more potent) of TTTTCTAATCCATCCAGCCCTG and report it.
-0.672

====

- Assayed system: VGLL2
- Assay procedure: pooled miR-30 sensor sort-seq; sequence = guide strand
- Test conditions: shRNA
Measure: sensor-assay potency score (higher = more potent)

[[record]]
sequence_string = "TACTTCTCTACCACAGTCTTAG"
measured_result = -0.503

[[record]]
sequence_string = "TTAAACATAACTCAGTCTTTGG"
measured_result = -0.689

[[record]]
sequence_string = "TTCTCTACCACAGTCTTAGATG"
measured_result = -1.22


Please supply the value of reported sensor-assay potency score (higher = more potent) for the item TAAAATCTGACAGTAGTAGTGC
0.941

Read off the recorded sensor-assay potency score (higher = more potent) for TTGACTTCTCTTTACTTCTCTA
-0.415

Give the value of sensor-assay potency score (higher = more potent) reported for the following: TTGGATTTGCTCTTTCAGCAGC
-0.344

Output sensor-assay potency score (higher = more potent) of TATAATCACACTACCTAACAAA
-1.39

====

- Assayed system: TSC22D2
- Assay procedure: pooled miR-30 sensor sort-seq; sequence = guide strand
- Test conditions: shRNA
Measure: sensor-assay potency score (higher = more potent)
No unit in the answer, please; the number alone is enough.

[[record]]
sequence_string = "TTTAACAGTGCATTTTCTCGTT"
measured_result = 0.0173


Determine its reported sensor-assay potency score (higher = more potent): TCAACAGGAATAGCTATGCTGA
-0.503

State its sensor-assay potency score (higher = more potent) for this sequence: TTTTCTTCTAGTATCGTCGACT
-0.0154

====

- Assayed system: LILRB3
- Assay procedure: pooled miR-30 sensor sort-seq; sequence = guide strand
- Test conditions: shRNA
Measure: sensor-assay potency score (higher = more potent)
Note: the reply should be a number with no unit written.

Before answering, review these 5 worked examples.
[[record]]
sequence_string = "TTGTGTGCACCGTAGCACCTGT"
assayed_system = "LILRB3"
measured_result = -0.532

[[record]]
sequence_string = "TTGTTGAGAAGTCTGTTGCTTT"
assayed_system = "LILRB3"
measured_result = -0.0209

[[record]]
sequence_string = "TTAGTCATCTTTGAGTCAGGTG"
assayed_system = "LILRB3"
measured_result = -0.0536

[[record]]
sequence_string = "TATTAGTCATCTTTGAGTCAGG"
assayed_system = "LILRB3"
measured_result = -0.452

[[record]]
sequence_string = "TTGATTGTTGAGAAGTCTGTTG"
assayed_system = "LILRB3"
measured_result = -0.405


Answer with the recorded sensor-assay potency score (higher = more potent) of TTTCTCTGGTCAGATGTCCTGT only.
-0.223

Retrieve sensor-assay potency score (higher = more potent) measured for TTCCGTCTAAGGGTCAAGCTGT and print it.
-0.222

Read off the recorded sensor-assay potency score (higher = more potent) for TTTATGCAGTCGGTACTCCTGG
-0.617

Give sensor-assay potency score (higher = more potent) for TTATGCAGTCGGTACTCCTGGG
-0.343

Look up and report measured sensor-assay potency score (higher = more potent) for this entry: TGACTGTCCAGCTCCACCCTGT
-0.563

Tell us which sensor-assay potency score (higher = more potent) value is on record for TATGCAGTCGGTACTCCTGGGC
-0.223

====

- Assayed system: SLC50A1
- Assay procedure: pooled miR-30 sensor sort-seq; sequence = guide strand
- Test conditions: shRNA
Measure: sensor-assay potency score (higher = more potent)
Answer with a number only.

Solved cases below.
[[record]]
sequence_string = "TTCCTGTCTTGCTCCTGGGGGT"
measured_result = -0.7

[[record]]
sequence_string = "TTAGTTTGAATCACCTTAGCCA"
measured_result = 0.6

[[record]]
sequence_string = "ATATAGGGATCTCTGAGTCGAA"
measured_result = -0.899

[[record]]
sequence_string = "TCTGAGTCGAAACCCATAGAGG"
measured_result = -1.58

[[record]]
sequence_string = "TAGTTTGAATCACCTTAGCCAA"
measured_result = -1.16

[[record]]
sequence_string = "TTGGACACCATGATATAGGGAT"
measured_result = 0.348

[[record]]
sequence_string = "TTATCCTCAAAGTCATCTCTTG"
measured_result = -0.683


Read off the recorded sensor-assay potency score (higher = more potent) for TCGCATGTGCCTGAGGTCCGAG
-1.22

====

This listing pairs sequences with measured sensor-assay potency score (higher = more potent).
- Assayed system: PLEKHA8
- Assay procedure: pooled miR-30 sensor sort-seq; sequence = guide strand
- Test conditions: shRNA
Keep the answer to the number alone.

Below are worked cases with known answers.
[[record]]
sequence_string = "ATTATCTACAGAATGAACTTGA"
measured_result = 1.24

[[record]]
sequence_string = "TTCCATTCCATCTTCCTTCCTT"
measured_result = 0.675

[[record]]
sequence_string = "TTCAGCAAACTCTTTCTCCTTC"
measured_result = 0.589

[[record]]
sequence_string = "AATATTTCCAACAAGATCCATC"
measured_result = -1.17

[[record]]
sequence_string = "ATTTCCAACAAGATCCATCTTA"
measured_result = 0.673


Provide sensor-assay potency score (higher = more potent) value for the following sequence: TAGGGCTGTCTGGATATCCTTC
-0.391

Find the measured sensor-assay potency score (higher = more potent) of TATCTACAGAATGAACTTGAAT and report it.
-1.22

====

Items are presented alongside their recorded sensor-assay potency score (higher = more potent).
- Assayed system: ZMAT5
- Assay procedure: pooled miR-30 sensor sort-seq; sequence = guide strand
- Test conditions: shRNA
Please reply with the value in numeric form only.

[[record]]
sequence_string = "ATGTCGTACCAGACCTTCTTGG"
measured_result = -1.05

[[record]]
sequence_string = "TCTCGCTCTGACATGTGGGAAA"
measured_result = -1.37


Recall the reported sensor-assay potency score (higher = more potent) of TACTGGAAGACAGTGGTTCTGA when tested on ZMAT5.
0.107

Give measured sensor-assay potency score (higher = more potent) for TGTCGTACCAGACCTTCTTGGC (ZMAT5).
-0.415

Look up and report sensor-assay potency score (higher = more potent), with ZMAT5 as system, for TACCAGACCTTCTTGGCCTTGA
0.178

====

- Assayed system: DCAF4L2
- Assay procedure: pooled miR-30 sensor sort-seq; sequence = guide strand
- Test conditions: shRNA
Measure: sensor-assay potency score (higher = more potent)
Give a plain numeric answer without units written out.

Guide cases for sensor-assay potency score (higher = more potent), answers given:
[[record]]
sequence_string = "TACTGTGTTACACATTTAGTGG"
measured_result = -1.02

[[record]]
sequence_string = "TAGCTGGTTCTTTCGTAGCATG"
measured_result = -1.53

[[record]]
sequence_string = "TTGGAGTATCTGCAAGTCCCAC"
measured_result = -0.914

[[record]]
sequence_string = "TTTTCTTTTGTCAACTGCCCAT"
measured_result = -0.395


Read the next record carefully.
Provide measured sensor-assay potency score (higher = more potent) value, entry: TAAACATCTCACAAACTGCTGC
-0.0348

====

- Assayed system: H2AFZ
- Assay procedure: pooled miR-30 sensor sort-seq; sequence = guide strand
- Test conditions: shRNA
Think of -1 as a floor: if sensor-assay potency score (higher = more potent) stands on it or above, it is Satisfied; beneath it, Not satisfied.

Solved cases below.
[[record]]
sequence_string = "ATAATGTCTGTACAAAACCAAA"
answer_label = "Not satisfied"

[[record]]
sequence_string = "TTTGAAGCCACAGTAACACTTA"
answer_label = "Satisfied"

[[record]]
sequence_string = "TAGATTTTAGGTGTCGATGAAT"
answer_label = "Not satisfied"


Determine whether this sequence has sensor-assay potency score (higher = more potent) no lower than -1: TTAGGTGTCGATGAATACGGCC
Satisfied

Is sensor-assay potency score (higher = more potent) at least -1? Consider TTTGTCTTGGCCTTTCCGGAGT
Satisfied

Is the recorded value of sensor-assay potency score (higher = more potent) equal to or greater than -1 for this sequence? TAGCAAGTTGCAAGTGACGAGG
Satisfied
